The values you see were collected from paper PMC7327383.

Tgt: full-length human α1D-adrenoceptor (Homo sapiens)
Sequence (P25100 whole entry): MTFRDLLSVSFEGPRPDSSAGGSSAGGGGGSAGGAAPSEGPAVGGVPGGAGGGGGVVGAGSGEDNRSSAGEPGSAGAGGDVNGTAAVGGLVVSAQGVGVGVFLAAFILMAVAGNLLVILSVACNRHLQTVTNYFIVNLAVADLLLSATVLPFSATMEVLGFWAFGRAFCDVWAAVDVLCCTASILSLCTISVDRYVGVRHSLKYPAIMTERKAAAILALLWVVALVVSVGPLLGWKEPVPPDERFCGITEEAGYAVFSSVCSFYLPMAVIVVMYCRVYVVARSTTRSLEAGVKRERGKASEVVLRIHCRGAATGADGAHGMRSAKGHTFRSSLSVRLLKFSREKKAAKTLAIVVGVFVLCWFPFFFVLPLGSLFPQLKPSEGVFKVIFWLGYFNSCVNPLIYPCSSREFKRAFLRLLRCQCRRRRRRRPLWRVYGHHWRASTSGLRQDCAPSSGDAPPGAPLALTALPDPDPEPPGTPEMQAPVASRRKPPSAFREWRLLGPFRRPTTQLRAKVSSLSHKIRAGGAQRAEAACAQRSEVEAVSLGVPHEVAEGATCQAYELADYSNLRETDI
Experiment: [3H]prazosin whole-cell competition binding, CHO-α1D cells
Condition: Log KD α1D (apparent), apparent KD: maximum concentration inhibited most but not all specific binding, IC50 from extrapolated curve
pKd: −log10 of the molar value.

[
  {
    "Compound": "Cn1cc(C(F)(F)F)nc1-c1ccc(OCC(O)CNCCOc2ccc(O)c(C(N)=O)c2)cc1 (stereo not shown) [CGP 20712A]",
    "Tgt": "full-length human α1D-adrenoceptor (Homo sapiens)",
    "pKd": 4.96
  }
]

* * *

Tgt: human α1A-adrenoceptor (Homo sapiens, UniProt P35348)
Construct: CHO cells stably expressing either the full‐length human α1A, α1B, or α1D‐adrenoceptor
Sequence (P35348 whole entry): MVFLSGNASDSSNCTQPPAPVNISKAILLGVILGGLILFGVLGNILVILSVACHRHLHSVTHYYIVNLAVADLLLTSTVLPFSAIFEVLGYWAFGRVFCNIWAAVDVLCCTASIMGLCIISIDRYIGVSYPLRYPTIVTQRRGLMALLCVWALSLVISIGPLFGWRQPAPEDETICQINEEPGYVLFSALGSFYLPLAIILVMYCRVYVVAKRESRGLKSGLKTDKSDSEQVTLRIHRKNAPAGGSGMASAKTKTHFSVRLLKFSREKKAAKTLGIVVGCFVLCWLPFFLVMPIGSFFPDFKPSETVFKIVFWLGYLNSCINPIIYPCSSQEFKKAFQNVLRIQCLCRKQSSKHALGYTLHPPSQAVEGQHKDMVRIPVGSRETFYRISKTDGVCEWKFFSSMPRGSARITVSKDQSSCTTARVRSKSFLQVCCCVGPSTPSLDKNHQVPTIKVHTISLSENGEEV
Experiment: [3H]prazosin whole-cell competition binding, CHO-α1A cells
Condition: ratio of KD values; higher α1A affinity; 1.0 under vs = none

[
  {
    "Compound": "O=C1c2ccccc2CCC1CNCCc1ccc(O)cc1 (centres unmarked)",
    "Selectivity ratio α1A vs α1D (fold)": 2.9
  },
  {
    "Compound": "CCN1CCCC1CNC(=O)c1cc(S(N)(=O)=O)ccc1OC (centres unmarked) [Sulpiride]",
    "Selectivity ratio α1A vs α1D (fold)": 6.9
  },
  {
    "Compound": "ClCCN(Cc1ccccc1)Cc1ccccc1",
    "Selectivity ratio α1A vs α1D (fold)": 3.5
  },
  {
    "Compound": "COC1(C2=NCCN2)COc2ccccc2O1 (centres unmarked)",
    "Selectivity ratio α1A vs α1D (fold)": 16
  },
  {
    "Compound": "Cc1c[nH]c(=O)n(CCCN2CCN(c3ccccc3OCC(F)(F)F)CC2)c1=O",
    "Selectivity ratio α1A vs α1D (fold)": 93
  },
  {
    "Compound": "CN(C)CC/C=C1\\c2ccccc2CSc2ccccc21 [Dosulepin]",
    "Selectivity ratio α1A vs α1D (fold)": 34
  },
  {
    "Compound": "O=C1Cc2cc(CCN3CCN(c4nsc5ccccc45)CC3)c(Cl)cc2N1",
    "Selectivity ratio α1A vs α1D (fold)": 34
  },
  {
    "Compound": "CC(C)(Cc1c[nH]c2ccc(Cl)cc12)NCCOc1ccccc1OCC1CC1.Cl",
    "Selectivity ratio α1A vs α1D (fold)": 31
  },
  {
    "Compound": "COc1ccccc1N1CCN(CC(O)COc2cccc3ccccc23)CC1 (centres unmarked)",
    "Selectivity ratio α1A vs α1D (fold)": 8.1
  },
  {
    "Compound": "COc1ccccc1N1CCN(CCCNc2cc(=O)n(C)c(=O)n2C)CC1",
    "Selectivity ratio α1A vs α1D (fold)": 6.9
  },
  {
    "Compound": "CC(C)NCC(O)COc1cccc2[nH]c3ccccc3c12 (centres unmarked)",
    "Selectivity ratio α1A vs α1D (fold)": 34
  },
  {
    "Compound": "CC(C)(C)NCC(O)COc1cccc2[nH]c(=O)[nH]c12 (centres unmarked)",
    "Selectivity ratio α1A vs α1D (fold)": 8.7
  },
  {
    "Compound": "CC(C)OC(=O)c1cc2c(OCC(O)CNC(C)(C)C)cccc2[nH]1 (centres unmarked)",
    "Selectivity ratio α1A vs α1D (fold)": 1.4
  },
  {
    "Compound": "O=C1NCCN1CCN1CCC(c2cn(-c3ccc(F)cc3)c3ccc(Cl)cc23)CC1",
    "Selectivity ratio α1A vs α1D (fold)": 219
  },
  {
    "Compound": "CNCCCN1c2ccccc2CCc2ccc(Cl)cc21",
    "Selectivity ratio α1A vs α1D (fold)": 48
  },
  {
    "Compound": "C[C@H](Cc1cc2c(c(C(N)=O)c1)N(CCCO)CC2)NCCOc1ccccc1OCC(F)(F)F",
    "Selectivity ratio α1A vs α1D (fold)": 468
  },
  {
    "Compound": "N=C(CC(O)COc1ccccc1-c1ccccc1)N1CCCCC1 (centres unmarked) [AH11110A]",
    "Selectivity ratio α1A vs α1D (fold)": 32
  },
  {
    "Compound": "Cc1ccc(Sc2ccccc2N2CCNCC2)c(C)c1",
    "Selectivity ratio α1A vs α1D (fold)": 7.8
  },
  {
    "Compound": "CC(CN1c2ccccc2Sc2ccccc21)N(C)C (centres unmarked)",
    "Selectivity ratio α1A vs α1D (fold)": 18
  },
  {
    "Compound": "CCC1(C2=NCCN2)Cc2ccccc2O1 (centres unmarked)",
    "Selectivity ratio α1A vs α1D (fold)": 3.2
  }
]
